target: SpPex13; assay: SPOT peptide array binding signal intensity (averaged, normalized) (arbitrary units (background-subtracted, floor 0; scale differs between SH3 domains)); higher = stronger binding of the SH3 domain to the peptide
reported property: SPOT peptide array binding signal intensity
Numbers only.

Illustrative cases are given below, each with its answer.
binder | data value
SSSSSPPPLPTRRDH | 6.5
ALRRRLPVTRSKINW | 23
FVLRYYILIPHEQWD | 47.5

I'm hoping you can list SPOT peptide array binding signal intensity for every binder here, please.
1. AGKRRLPLVRFKASD
2. LPMNIQPDLPPRKIM
3. NVLRKILEIPLHSFS
4. GQYRRTIVIPRRFFT
5. SPLGAPPPPPHKDHL

**A:**
42.5
42.5
2
79.5
2

I'm hoping you can list SPOT peptide array binding signal intensity for every binder here, please.
1. QNTPPLPPKPKSPHL
2. KKIRLIFTYPSTVGR

**A:**
0.5
24
